molecular target: Dihydrofolate reductase (Pneumocystis carinii, UniProt P16184)
pIC50: −log10 of the molar value.
Binary classification by pIC50, with 4 as an inclusive lower bound for T; all other cases are F.

Ask | Confirm if pIC50 reported for the compound COc1cc(-c2nc3nc(N)nc(N)c3[nH]2)cc(OC)c1OC is 4 or above.
Reply | T

Ask | // same read-out, input: COc1ccc(-c2nc3nc(N)nc(N)c3[nH]2)c(OC)c1
Reply | T

Ask | // same read-out, input: COc1cc(-c2nc3c(N)nc(N)nc3[nH]2)cc(OC)c1O
Reply | T

Ask | // same read-out, input: COc1ccc(OC)c(NCc2nc3c(N)nc(N)nc3[nH]2)c1
Reply | T

Ask | // same read-out, input: COc1ccc(OC)c(-c2nc3nc(N)nc(N)c3[nH]2)c1
Reply | T

Next:
Ask | Confirm if pIC50 reported for the compound Nc1nc(N)c2[nH]c(-c3ccc(-c4ccccc4)cc3)nc2n1 is 4 or above.
Reply | F

====

target: Bifunctional dihydrofolate reductase-thymidylate synthase (Toxoplasma gondii) (UniProt Q07422); experiment: Percent inhibition against Toxoplasma gondii Dihydrofolate reductase; settings: concentration not given here
Sequence (Q07422 whole entry): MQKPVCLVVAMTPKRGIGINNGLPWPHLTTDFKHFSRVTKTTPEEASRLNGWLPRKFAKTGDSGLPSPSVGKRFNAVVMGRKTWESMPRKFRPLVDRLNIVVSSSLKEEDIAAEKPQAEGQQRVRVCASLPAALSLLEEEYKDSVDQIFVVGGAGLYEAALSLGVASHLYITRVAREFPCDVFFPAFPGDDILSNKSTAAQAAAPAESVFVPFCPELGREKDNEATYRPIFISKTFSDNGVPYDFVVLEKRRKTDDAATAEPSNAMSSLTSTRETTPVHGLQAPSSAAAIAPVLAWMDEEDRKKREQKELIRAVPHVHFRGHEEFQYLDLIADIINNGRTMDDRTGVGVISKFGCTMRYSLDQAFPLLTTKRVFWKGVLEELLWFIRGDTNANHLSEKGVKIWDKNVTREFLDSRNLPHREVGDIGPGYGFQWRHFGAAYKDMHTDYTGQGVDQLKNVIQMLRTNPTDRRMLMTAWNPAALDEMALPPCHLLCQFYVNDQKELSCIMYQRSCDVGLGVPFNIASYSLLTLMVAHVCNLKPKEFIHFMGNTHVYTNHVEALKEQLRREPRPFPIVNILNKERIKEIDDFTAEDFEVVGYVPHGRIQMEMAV
# Lookup of reported inhibition keyed by entry
Write the number in % without appending the unit.

Solved cases below.
Ask | Query (compound): Nc1nc(N)c2[nH]c(-c3ccncc3)nc2n1 ; field requested: inhibition
Reply | 14

Ask | // same read-out, input: COc1cc(NCc2nc3[nH]c(N)nc(N)c-3n2)cc(OC)c1OC
Reply | 5

Ask | // same read-out, input: Nc1nc(N)c2[nH]c(-c3c(Cl)cccc3Cl)nc2n1
Reply | 6

Lab note: next compound to report on.
Ask | Query (compound): COc1ccc(-c2nc3[nH]c(N)nc(N)c-3n2)c2ccccc12 ; field requested: inhibition
Reply | 10

====

molecular target: Bifunctional dihydrofolate reductase-thymidylate synthase (Toxoplasma gondii); assay: Inhibition of Toxoplasma gondii dihydrofolate reductase
pIC50: −log10 of the molar value.
Binary classification by pIC50, with 5 as an inclusive lower bound for Condition met; all other cases are Condition not met.

Known results for molecules:
Ask | Confirm if pIC50 reported for the molecule COc1cc(-c2nc3nc(N)nc(N)c3[nH]2)cc(OC)c1OC is 5 or above.
Reply | Condition met

Ask | // same read-out, input: COc1cc(OC)cc(-c2nc3nc(N)nc(N)c3[nH]2)c1
Reply | Condition met

Ask | // same read-out, input: Nc1nc(N)c2nc(-c3ccccc3)[nH]c2n1
Reply | Condition not met

Next:
Ask | Confirm if pIC50 reported for the molecule Nc1nc(N)c2nc(-c3ccc4ccccc4c3)[nH]c2n1 is 5 or above.
Reply | Condition not met

Ask | // same read-out, input: COc1ccc(-c2nc3nc(N)nc(N)c3[nH]2)c(OC)c1
Reply | Condition met

====

# Lookup of reported IC50 keyed by entry
target: Bifunctional dihydrofolate reductase-thymidylate synthase (Toxoplasma gondii); test: Inhibition of Toxoplasma gondii dihydrofolate reductase
Write the number in µM without appending the unit.

Solved cases below.
Ask | Query (molecule): Nc1nc(N)c2[nH]c(-c3c(Cl)cccc3Cl)nc2n1 ; field requested: IC50
Reply | 11

Ask | // same read-out, input: COc1ccc(OC)c(NCc2nc3c(N)nc(N)nc3[nH]2)c1
Reply | 49

Ask | // same read-out, input: Nc1nc(N)c2[nH]c(-c3ccncc3)nc2n1
Reply | 20

Ask | // same read-out, input: Nc1nc(N)c2nc(Cc3ccccc3)[nH]c2n1
Reply | 0.5

Ask | // same read-out, input: Nc1nc(N)c2[nH]c(CSc3ccc4ccccc4c3)nc2n1
Reply | 45

Next:
Ask | Query (molecule): COc1cc(-c2nc3c(N)nc(N)nc3[nH]2)cc(OC)c1O ; field requested: IC50
Reply | 1

Ask | // same read-out, input: COc1ccc(OC)c(-c2nc3nc(N)nc(N)c3[nH]2)c1
Reply | 1.7

Ask | // same read-out, input: COc1cc(OC)c(-c2nc3nc(N)nc(N)c3[nH]2)c(OC)c1
Reply | 0.84

Ask | // same read-out, input: Nc1nc(N)c2[nH]c(-c3ccc(-c4ccccc4)cc3)nc2n1
Reply | 32.9

Ask | // same read-out, input: Nc1nc(N)c2[nH]c(-c3ccc(Cl)c(Cl)c3)nc2n1
Reply | 6.7

Ask | // same read-out, input: COc1ccc(-c2nc3c(N)nc(N)nc3[nH]2)c(OC)c1OC
Reply | 1.8

Ask | // same read-out, input: COc1cc(OC)c(-c2nc3nc(N)nc(N)c3[nH]2)cc1OC
Reply | 1.5

====

target: Dihydrofolate reductase (Rattus norvegicus)
pIC50: −log10 of the molar value.
Binary classification by pIC50, with 5 as an inclusive lower bound for yes; all other cases are no.

Ask | Confirm if pIC50 reported for the molecule Nc1nc(N)c2[nH]c(-c3ccc(Cl)c(Cl)c3)nc2n1 is 5 or above.
Reply | no

Ask | // same read-out, input: COc1cc(OC)c(-c2nc3nc(N)nc(N)c3[nH]2)cc1OC
Reply | yes

Ask | // same read-out, input: COc1ccc(OC)c(-c2nc3nc(N)nc(N)c3[nH]2)c1
Reply | yes

Ask | // same read-out, input: COc1cc(-c2nc3c(N)nc(N)nc3[nH]2)cc(OC)c1O
Reply | no

Ask | // same read-out, input: COc1cc(OC)c(-c2nc3nc(N)nc(N)c3[nH]2)c(OC)c1
Reply | yes

Ask | // same read-out, input: COc1ccc(-c2nc3c(N)nc(N)nc3[nH]2)c(OC)c1OC
Reply | yes

Ask | // same read-out, input: COc1ccc(OC)c(NCc2nc3c(N)nc(N)nc3[nH]2)c1
Reply | no

Ask | // same read-out, input: COc1cc(OC)cc(-c2nc3nc(N)nc(N)c3[nH]2)c1
Reply | no

====

# Lookup of reported IC50 keyed by entry
Molecular target: Dihydrofolate reductase (Pneumocystis carinii)
Sequence (P16184 whole entry): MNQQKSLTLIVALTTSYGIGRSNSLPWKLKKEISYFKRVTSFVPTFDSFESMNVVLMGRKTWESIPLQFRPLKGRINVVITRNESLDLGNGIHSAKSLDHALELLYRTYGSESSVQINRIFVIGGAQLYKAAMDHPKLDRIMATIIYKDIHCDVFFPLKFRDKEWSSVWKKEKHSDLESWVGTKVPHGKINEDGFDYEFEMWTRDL
Write the number in µM without appending the unit.

Solved cases below.
Ask | Value wanted: IC50 (Dihydrofolate reductase (Pneumocystis carinii)) of entry Nc1nc(N)c2nc(-c3ccc4ccccc4c3)[nH]c2n1
Reply | 113

Ask | // same read-out, input: COc1ccc(-c2nc3c(N)nc(N)nc3[nH]2)c(OC)c1OC
Reply | 17

Ask | // same read-out, input: COc1cc(OC)c(-c2nc3nc(N)nc(N)c3[nH]2)cc1OC
Reply | 22

Ask | // same read-out, input: Nc1nc(N)c2nc(-c3ccccc3)[nH]c2n1
Reply | 153

Ask | // same read-out, input: Nc1nc(N)c2[nH]c(-c3c(Cl)cccc3Cl)nc2n1
Reply | 11

Next:
Ask | Value wanted: IC50 (Dihydrofolate reductase (Pneumocystis carinii)) of entry COc1cc(OC)c(-c2nc3nc(N)nc(N)c3[nH]2)c(OC)c1
Reply | 31.5

====

molecular target: Dihydrofolate reductase (Rattus norvegicus) (UniProt Q920D2); experiment: Percent inhibition against rat liver Dihydrofolate reductase; design: concentration or dose not given beside the values; conditions: concentration not given here
Sequence (Q920D2 whole entry): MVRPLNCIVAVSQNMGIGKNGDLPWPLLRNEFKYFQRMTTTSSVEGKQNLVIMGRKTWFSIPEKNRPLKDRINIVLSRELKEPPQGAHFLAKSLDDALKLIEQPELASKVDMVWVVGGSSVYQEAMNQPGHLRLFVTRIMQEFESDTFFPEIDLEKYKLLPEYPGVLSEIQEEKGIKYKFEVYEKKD
Binary classification by inhibition, with 10% as an inclusive lower bound for true (1); all other cases are false (0).

Known results for compounds:
Ask | Confirm if inhibition reported for the compound Nc1nc(N)c2[nH]c(-c3ccncc3)nc2n1 is 10% or above.
Reply | false (0)

Ask | // same read-out, input: COc1ccc(-c2nc3[nH]c(N)nc(N)c-3n2)c2ccccc12
Reply | true (1)

Next:
Ask | Confirm if inhibition reported for the compound Nc1nc(N)c2[nH]c(-c3c(Cl)cccc3Cl)nc2n1 is 10% or above.
Reply | false (0)

Ask | // same read-out, input: COc1cc(NCc2nc3[nH]c(N)nc(N)c-3n2)cc(OC)c1OC
Reply | true (1)

Ask | // same read-out, input: COc1ccc(OC)c(NCc2nc3c(N)nc(N)nc3[nH]2)c1
Reply | true (1)

Ask | // same read-out, input: COc1cc(-c2nc3[nH]c(N)nc(N)c-3n2)c([N+](=O)[O-])cc1OC
Reply | true (1)

====

# Lookup of reported pIC50 keyed by entry
target: Dihydrofolate reductase (Rattus norvegicus, UniProt Q920D2)
Sequence (Q920D2 whole entry): as the sequence (Q920D2 whole entry) above
pIC50 is a log-scale quantity: -log10 of the concentration expressed in molar.

Solved cases below.
Ask | Query (molecule): COc1cc(-c2nc3nc(N)nc(N)c3[nH]2)cc(OC)c1OC ; field requested: pIC50
Reply | 4.89

Ask | // same read-out, input: Nc1nc(N)c2[nH]c(-c3c(Cl)cccc3Cl)nc2n1
Reply | 4.96

Ask | // same read-out, input: COc1ccc(-c2nc3[nH]c(N)nc(N)c-3n2)c2ccccc12
Reply | 4.89

Next:
Ask | Query (molecule): Nc1nc(N)c2[nH]c(CSc3ccc4ccccc4c3)nc2n1 ; field requested: pIC50
Reply | 3.97

Ask | // same read-out, input: Nc1nc(N)c2nc(Cc3ccccc3)[nH]c2n1
Reply | 5.80

Ask | // same read-out, input: Nc1nc(N)c2nc(-c3ccccc3)[nH]c2n1
Reply | 4.22

Ask | // same read-out, input: Nc1nc(N)c2nc(-c3ccc4ccccc4c3)[nH]c2n1
Reply | 3.55
